# Test system: HeLa Kyoto
# RUN DESCRIPTION: melting temperature (median over replicates), in situ; higher = more thermally stable
# TEST CONDITIONS: cell cycle stage: G1/S
Here the recorded melting temperature is given for each entry.
ASSAY READOUT: melting temperature (°C)

• MADLLGSILSSMEKPPSLGDQETRRKAREQAARLKKLQEQEKQQKVEFRKRMEKEVSDFIQDSGQIKKKFQPMNKIERSILHDVVEVAGLTSFSFGEDDDCRYVMIFKKEFAPSDEELDSYRRGEEWDPQKAEEKRKLKELAQRQEEEAAQQGPVVVSPASDYKDKYSHLIGKGAAKDAAHMLQANKTYGCVPVANKRDTRSIEEAMNEIRAKKRLRQSGEELPPTS [SPAG7] = 53.1
• MVLESVARIVKVQLPAYLKRLPVPESITGFARLTVSEWLRLLPFLGVLALLGYLAVRPFLPKKKQQKDSLINLKIQKENPKVVNEINIEDLCLTKAAYCRCWRSKTFPACDGSHNKHNELTGDNVGPLILKKKEV [CISD2] = 54.2

* * *

# System: HeLa Kyoto
# RUN DESCRIPTION: thermal stability score vs G1/S (z-score of summed log2 fold changes over temperatures); higher = more thermally stable than in G1/S
# TEST CONDITIONS: cell cycle stage: mitosis
Here the recorded thermal stability score is given for each entry.
ASSAY READOUT: thermal stability score

* MNHSERFVFIAEWYDPNASLLRRYELLFYPGDGSVEMHDVKNHRTFLKRTKYDNLHLEDLFIGNKVNVFSRQLVLIDYGDQYTARQLGSRKEKTLALIKPDAISKAGEIIEIINKAGFTITKLKMMMLSRKEALDFHVDHQSRPFFNELIQFITTGPIIAMEILRDDAICEWKRLLGPANSGVARTDASESIRALFGTDGIRNAAHGPDSFASAAREMELFFPSSGGCGPANTAKFTNCTCCIVKPHAVSEGLLGKILMAIRDAGFEISAMQMFNMDRVNVEEFYEVYKGVVTEYHDMVTEMYSGPCVAMEIQQNNATKTFREFCGPADPEIARHLRPGTLRAIFGKTKIQNAVHCTDLPEDGLLEVQYFFKILDN [NME7] | 0.668
* MKQLPVLEPGDKPRKATWYTLTVPGDSPCARVGHSCSYLPPVGNAKRGKVFIVGGANPNRSFSDVHTMDLGKHQWDLDTCKGLLPRYEHASFIPSCTPDRIWVFGGANQSGNRNCLQVLNPETRTWTTPEVTSPPPSPRTFHTSSAAIGNQLYVFGGGERGAQPVQDTKLHVFDANTLTWSQPETLGNPPSPRHGHVMVAAGTKLFIHGGLAGDRFYDDLHCIDISDMKWQKLNPTGAAPAGCAAHSAVAMGKHVYIFGGMTPAGALDTMYQYHTEEQHWTLLKFDTLLPPGRLDHSMCIIPWPVTCASEKEDSNSLTLNHEAEKEDSADKVMSHSGDSHEESQTATLLCLVFGGMNTEGEIYDDCIVTVVD [RABEPK] | -1.94
* MSSGNAKIGHPAPNFKATAVMPDGQFKDISLSDYKGKYVVFFFYPLDFTFVCPTEIIAFSDRAEEFKKLNCQVIGASVDSHFCHLAWVNTPKKQGGLGPMNIPLVSDPKRTIAQDYGVLKADEGISFRGLFIIDDKGILRQITVNDLPVGRSVDETLRLVQAFQFTDKHGEVCPAGWKPGSDTIKPDVQKSKEYFSKQK [PRDX1] | -1.31
* MKQDASRNAAYTVDCEDYVHVVEFNPFENGDSGNLIAYGGNNYVVIGTCTFQEEEADVEGIQYKTLRTFHHGVRVDGIAWSPETRLDSLPPVIKFCTSAADMKIRLFTSDLQDKNEYKVLEGHTDFINGLVFDPKEGQEIASVSDDHTCRIWNLEGVQTAHFVLHSPGMSVCWHPEETFKLMVAEKNGTIRFYDLLAQQAILSLESEQVPLMSAHWCLKNTFKVGAVAGNDWLIWDITRSSYPQNKRPVHMDRACLFRWSTISENLFATTGYPGKMASQFQIHHLGHPQPILMGSVAVGSGLSWHRTLPLCVIGGDHKLLFWVTEV [NUP37] | -4.8
* MALGLKCFRMVHPTFRNYLAASIRPVSEVTLKTVHERQHGHRQYMAYSAVPVRHFATKKAKAKGKGQSQTRVNINAALVEDIINLEEVNEEMKSVIEALKDNFNKTLNIRTSPGSLDKIAVVTADGKLALNQISQISMKSPQLILVNMASFPECTAAAIKAIRESGMNLNPEVEGTLIRVPIPQVTREHREMLVKLAKQNTNKAKDSLRKVRTNSMNKLKKSKDTVSEDTIRLIEKQISQMADDTVAELDRHLAVKTKELLG [MRRF] | -2.36
